Test system: SF-295
Test: NCI tumour cell line growth inhibition, 48 h
Calls of active or inactive are those of the source. Cut-off read from the data, not from the text of the source: active = GI50 up to about 1.1 µM and inactive = higher.
Give your call using only these classes: active, inactive

# count of solved cases: 5
compound	className
CCOC(CCNCC(OCC)OCC)OCC	inactive
C=CCC1=C2CCCCC2CCC1=O (stereo not given)	inactive
C=C(C)C1C/C=C(/C)CCCC2(CCC3=C(CC(C(=C)C)C/C=C(/C)CCC3)O2)C(=O)C1 (stereo not given)	inactive
Cc1ccc(NC(=S)NNC(=O)c2cc(-c3ccccc3)nc3ccccc23)cc1C	inactive
CCN(CC)CCCNc1nccc2c(C)c3c(cc12)c1cnccc1n3C	active

I would be grateful if you could indicate the recorded call for CC(=O)N1c2ccccc2C23CCN4CC5=CCOC(O)C(C5CC42)C13 (stereo not given) .
inactive

I would be grateful if you could indicate the recorded call for C=C1[C@@H](O)C[C@@]23CC[C@@H]4[C@@]5(C)CC[C@@H](OC(C)=O)C(C)(C)[C@@H]5C[C@@H](OC5OC(COC(C)=O)C(O)C(O)C5O)[C@@]4(C)C2=CC[C@H]3[C@H]1C (stereo not given in full) .
inactive

I would be grateful if you could indicate the recorded call for COc1ccc(C(=O)/C=C/c2ccc(OCCCOc3ccc(/C=C/C(=O)c4ccc(OC)c(OC)c4)cc3)cc2)cc1OC .
inactive

I would be grateful if you could indicate the recorded call for N/C(=N\O)N/N=C/c1ccc2c(c1)OCO2 .
inactive

I would be grateful if you could indicate the recorded call for CCCCN(CCCC)CC(C(=O)Nc1ccccc1)/C(C)=N\NC(=O)c1ccncc1 (stereo not given) .
inactive

I would be grateful if you could indicate the recorded call for COc1cc([C@@H]2c3cc4c(cc3[C@@H](Nc3ccc(Cl)cc3C(=O)c3ccccc3)[C@H]3COC(=O)[C@H]23)OCO4)cc(OC)c1OC .
active

###

System: RXF 393
Assay: NCI tumour cell line growth inhibition, 48 h
The source made the active and inactive calls. Rule as the data show it: active = GI50 up to about 1.1 µM and inactive = higher.
Give your call using only these classes: active, inactive

# count of solved cases: 3
compound	className
Cc1ccc2c(c1)Sc1ccc(/N=N/N(C)C)cc1N2C	inactive
O=C1Oc2cc3c(c4cccc1c24)O[C@H](c1ccccc1)[C@@H](c1ccccc1)[C@@H]3c1ccc(Cl)cc1	inactive
O=C(CSc1nc2ccc(I)cc2c(=O)n1Cc1ccccc1)NN1C(=O)CCC1=O	inactive

I would be grateful if you could indicate the recorded call for O=[N+]([O-])c1ccc(/C=C(/c2ccc([N+](=O)[O-])o2)S(=O)(=O)c2ccccc2)cc1 .
inactive

###

Test system: COLO 205
Experiment: NCI tumour cell line growth inhibition, 48 h
Active and inactive are the calls of the source. Cut-off read from the data, not from the text of the source: active = GI50 up to about 1.1 µM and inactive = higher.
measurementKind: GI50

Consider the reported GI50 for these compounds:
> print(dat)
                                   compound               result
1  CC1NOC(=O)C1/N=N/c1cccc(Cl)c1 (stereo not given)   20.5 µM (inactive)
2  COc1ccc(/C=N/n2c(C)nc3c(sc(=S)n3-c3ccccc3)c2=O)cc1  > 100 µM (inactive)
3  CN1C(c2ccccc2)CS(=O)(=O)CS1(=O)=O (stereo not given)  > 100 µM (inactive)
4  CCSC(=O)/C=C1\CN(C(=O)OC(C)(C)C)C1C(=O)OC(C)(C)C (stereo not given)   2.02 µM (inactive)

Fetch value of GI50 on COLO 205 for FC(F)(F)c1cccc(-c2nc3nc(Cl)c(Cl)nc3[nH]2)c1 .
1.45 µM (inactive)

###

System: NCI-H23
Assay: NCI tumour cell line growth inhibition, 48 h
The source made the active and inactive calls. Rule as the data show it: active = GI50 up to about 1.1 µM and inactive = higher.
Listing: GI50 of selected compounds

Consider the reported GI50 for these compounds:
compound	GI50
O=C1Oc2cc3c(c4cccc1c24)O[C@H](c1ccccc1)[C@@H](c1ccccc1)[C@@H]3c1ccc(Cl)cc1	34 µM (inactive)
C=CC(=O)NC(O)(C(=O)OCC)C(F)(F)F (stereo not drawn)	> 100 µM (inactive)
Cc1cc2c(cc1C)[n+]([O-])c(-c1c(Cl)cccc1Cl)c(N)[n+]2[O-]	24.1 µM (inactive)
COc1ccc(/C=C2\N=C3NC(=O)C(N4CCCCC4)=C(N)N3C2=O)cc1	> 100 µM (inactive)

Recall and state the measured GI50 for Cc1ccc(S(=O)(=O)n2ccc(-c3ccc4ccn(S(=O)(=O)c5ccc(C)cc5)c4c3)c2)cc1 .
> 100 µM (inactive)

Recall and state the measured GI50 for O=C1CCC(c2ccccc2)=NN1c1nsc2ccccc12 .
> 100 µM (inactive)

Recall and state the measured GI50 for CCN(CC)C(=O)c1cc(OC(C)C)ccc1-c1c(C)cc(OC(C)C)c(OC)c1OC .
60 µM (inactive)

Recall and state the measured GI50 for CCCCCCCC(=O)NCC(O)CNC(=O)CCCCCCC .
> 100 µM (inactive)

Recall and state the measured GI50 for COc1cc([C@@H]2c3cc4c(cc3[C@@H](c3c(O)cc(O)c5c3O[C@H](c3ccc(O)c(O)c3)[C@@H](O)C5)[C@H]3COC(=O)[C@H]23)OCO4)cc(OC)c1O .
> 100 µM (inactive)

Recall and state the measured GI50 for Cc1nc(O)nc2nc3cc(Cl)cc(Cl)c3c(NC(C)(CO)CO)c12 .
81.8 µM (inactive)

Recall and state the measured GI50 for COC(=O)c1c(C)[nH]c2c1C(=O)C(=O)c1nc(C)c(C)nc1-2 .
10.2 µM (inactive)

Recall and state the measured GI50 for Cc1cc(S(=O)(=O)/N=C2\NCCN2Cc2ccccc2)c(S)cc1Cl .
> 100 µM (inactive)

Recall and state the measured GI50 for COC(C)(C)C(O)C(O)C[C@H](C)C1CC=C2C1(C)CCC1[C@@]3(C)CCC(OC(C)=O)C(C)(C)C3CC(OC3OC(COC(C)=O)C(O)C(O)C3O)[C@@]21C (stereo partly drawn) .
4.85 µM (inactive)

Recall and state the measured GI50 for O=C1CSC(c2cccc(Oc3ccccc3)c2)N1c1cc(Cl)ccc1Cl (stereo not drawn) .
31.9 µM (inactive)

###

Test system: RPMI-8226
Assay: NCI tumour cell line growth inhibition, 48 h
Calls of active or inactive are those of the source. No stated cut-off is given here; in the data, active = GI50 up to about 1.1 µM and inactive = higher.
Give your call using only these classes: true (active), false (inactive)

# count of solved cases: 8
compound	className
CCC(=O)N/S(=N/S(=O)(=O)c1ccccc1)C(Cl)(Cl)Cl (stereo unspecified)	false
NC1CCCCC1	false
O=C1CCC(c2ccccc2)=NN1c1nsc2ccccc12	false
CN(C)CCCN1CCC2(CCC(C(C)(C)C)CC2)CC1	false
Cc1[nH]c2ncn(/N=C/c3ccccc3O)c(=N)c2c1Cc1ccccc1	false
O=C(CSc1nc2ccc(I)cc2c(=O)n1Cc1ccccc1)NN1C(=O)CCC1=O	false
COc1ccccc1C(=O)NCC1CCCN2CCCCC12 (stereo unspecified)	false
CCOC(=O)C(C(=S)SC)c1nn2c(=O)cc(C)nc2s1 (stereo unspecified)	false

I would be grateful if you could indicate the recorded call for COc1ccc(C(=O)C(c2ccc(OC)cc2)C2(O)C(=O)Nc3c(Cl)cc(Cl)cc32)cc1 (stereo unspecified) .
false

I would be grateful if you could indicate the recorded call for N#C/C(=C/NC(=S)Nc1ccc(S(N)(=O)=O)cc1)C(N)=O .
false

###

Listing: GI50 of selected compounds
Test system: UACC-62
Assay: NCI tumour cell line growth inhibition, 48 h
Calls of active or inactive are those of the source. Rule as the data show it: active = GI50 up to about 1.1 µM and inactive = higher.

Consider the reported GI50 for these compounds:
compound	assaySystem	GI50
Oc1c2cccc1Cc1cccc3c1OCCOCCOCCOCCOc1c(cccc1Cc1cccc(c1O)C3)C2	UACC-62	26.7 µM (inactive)
CCOC(=O)C#Cc1ccccc1	UACC-62	6.75 µM (inactive)
Cc1cccc2c(O)cc(=O)oc12	UACC-62	> 100 µM (inactive)
O=C1CC(=O)N(CCc2ccccc2)S(=O)(=O)N1CCc1ccccc1	UACC-62	25.9 µM (inactive)
O=C1Oc2cc3c(c4cccc1c24)O[C@H](c1ccccc1)[C@@H](c1ccccc1)[C@@H]3c1ccc(Cl)cc1	UACC-62	19.3 µM (inactive)

Recall and state the measured GI50 for C=C1[C@@H](O)C[C@@]23CC[C@@H]4[C@@]5(C)CC[C@@H](OC(C)=O)C(C)(C)[C@@H]5C[C@@H](OC5OC(COC(C)=O)C(O)C(O)C5O)[C@@]4(C)C2=CC[C@H]3[C@H]1C (stereo partly drawn) .
6.07 µM (inactive)

Recall and state the measured GI50 for Cc1ccc(Cc2nn(C)c(=O)n2N)cc1 .
> 100 µM (inactive)

Recall and state the measured GI50 for COCc1nc(N)nc(N2N=C(C)CC2(C)C)n1 .
> 100 µM (inactive)

###

System: NCI-H522
Test: NCI tumour cell line growth inhibition, 48 h
Active and inactive are the calls of the source. No stated cut-off is given here; in the data, active = GI50 up to about 1.1 µM and inactive = higher.
measurementKind: GI50

> print(dat)
                                   molecule               result
1               COc1cc2ccc(CC(N)=O)cc2cc1OC  > 100 µM (inactive)
2                            Nc1n[nH]c(N)n1   2680 µM (inactive)
3  CCn1c(=O)nc2n(-c3ccccc3)c3ccccc3nc-2c1=O   26.9 µM (inactive)
4  CC(N/N=C(\S)N1CCN(c2ccccn2)CC1)c1cccc[n+]1[O-] (stereo not given)   2.12 µM (inactive)

Fetch value of GI50 on NCI-H522 for Cc1cc(-c2nc3cccc(F)c3s2)ccc1N .
> 100 µM (inactive)
